target: Polyunsaturated fatty acid 5-lipoxygenase (Homo sapiens, UniProt P09917); experiment: Inhibition of lipoxygenase 5 product formation from endogenous substrate in Calcium and ionophore-stimulated polymorphonuclear leukocyte
Sequence (P09917 whole entry): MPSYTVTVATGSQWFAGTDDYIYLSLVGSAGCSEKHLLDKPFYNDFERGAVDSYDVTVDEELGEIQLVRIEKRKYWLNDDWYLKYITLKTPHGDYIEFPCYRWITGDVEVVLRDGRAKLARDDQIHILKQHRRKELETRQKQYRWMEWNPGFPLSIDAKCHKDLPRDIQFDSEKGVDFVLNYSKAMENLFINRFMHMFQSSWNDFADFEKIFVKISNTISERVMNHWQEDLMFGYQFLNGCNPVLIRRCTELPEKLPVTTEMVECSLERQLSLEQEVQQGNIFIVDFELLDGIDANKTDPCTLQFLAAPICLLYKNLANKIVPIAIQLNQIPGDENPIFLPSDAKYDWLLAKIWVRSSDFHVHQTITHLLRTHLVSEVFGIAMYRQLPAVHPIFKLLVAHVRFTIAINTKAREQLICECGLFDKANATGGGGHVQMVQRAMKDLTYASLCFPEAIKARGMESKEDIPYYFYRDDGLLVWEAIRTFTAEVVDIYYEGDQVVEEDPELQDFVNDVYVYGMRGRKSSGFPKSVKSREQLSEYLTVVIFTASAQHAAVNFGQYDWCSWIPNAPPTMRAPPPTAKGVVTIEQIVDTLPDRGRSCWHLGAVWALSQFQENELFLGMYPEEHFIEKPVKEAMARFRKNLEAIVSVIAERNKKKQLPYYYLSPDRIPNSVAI
Parameter pIC50: see the listing below.
Note on pIC50: it is the negative log10 of concentration, concentration in mol/L.

Solved entries:
compound	pIC50
C[C@H]1[C@H](C)CC[C@]2(C)CC[C@]3(C)C(=CC(=O)[C@@H]4[C@@]5(C)CC[C@@H](O)[C@](C)(C(=O)O)[C@@H]5CC[C@]43C)[C@H]12 [11-KETO BOSWELLIC ACID]	5.52
CC(=O)O[C@@H]1CC[C@]2(C)C3=CC=C4[C@@H]5[C@@H](C)[C@H](C)CC[C@]5(C)CC[C@@]4(C)[C@]3(C)CC[C@H]2[C@@]1(C)C(=O)O	6.12

# next compound below
Q: What value of pIC50 on Polyunsaturated fatty acid 5-lipoxygenase (Homo sapiens, UniProt P09917) does CC(=O)O[C@@H]1CC[C@@]2(C)[C@@H](CC[C@]3(C)[C@@H]2C(=O)C=C2[C@@H]4[C@@H](C)[C@H](C)CC[C@]4(C)CC[C@]23C)[C@@]1(C)C(=O)O [AKBA] have?
Result: 5.57
